The following compounds are shown together with reported z-score values.
assay: MM1S myeloma cell viability, profiling panel, resazurin fluorescence, basal, 24 h, PK04 Diversity Set (AID 1174); conditions: higher = more signal, called active from +8 up or from −8 down;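 also: MM1S multiple myeloma cell line; test concentration not given here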
Returns: the value as a bare number; no unit string appended.

[N-]=[N+]=NCc1ccccc1C[C@]1(C(=O)NCC(O)CO)N=C(c2ccc(OCCCO)cc2)O[C@H]1c1ccccc1CN=[N+]=[N-] (stereo not given in full) : -0.449
COc1ccc([Si](C)(C)[C@@H]2[C@@H](CC(=O)N3CCC[C@H]3CO)O[C@]3(C(=O)N(Cc4ccc(N5C(=O)c6cccc7cccc5c67)cc4)c4ccccc43)[C@H]2C)cc1 : -2.82
C=CCNC(=O)[C@@H]1[C@H]2C(=O)O[C@H](c3ccccc3)[C@H](c3ccccc3)N2[C@H](c2ccc(OCCO)cc2)[C@@]12C(=O)N(C(=O)OCCOC)c1ccc(C#CC3=CCCCC3)cc12 : -0.897

Indicate its recorded z-score; the compound in question is O=C(CS)NCCCCCCNC(=O)[C@H]1C[C@H]2C(=O)N[C@@H](Cc3ccccc3)C(=O)N2[C@H]1c1cccc(OCCO)c1
-0.453

Indicate its recorded z-score; the compound in question is COc1ccc(C(O)C2C=CC3C(=O)N(C)C(=O)C3N2N2CCCCC2)cc1 (stereo not given)
-0.8

Indicate its recorded z-score; the compound in question is COCCOC(=O)N1C(=O)[C@@]2(c3ccccc31)[C@H](C(=O)N1CCN(c3ncccn3)CC1)[C@H]1C(=O)O[C@H](c3ccccc3)[C@H](c3ccccc3)N1[C@@H]2c1ccc(OCCO)cc1
0.351

Indicate its recorded z-score; the compound in question is COC(=O)C(CC#Cc1ccc2c(c1)[C@]1(C(=O)N2)[C@H](C(=O)O)[C@H]2C(=O)O[C@H](c3ccccc3)[C@H](c3ccccc3)N2[C@@H]1c1ccccc1OCCO)C(=O)OC
0.0819

Indicate its recorded z-score; the compound in question is COC(=O)C[C@H]1O[C@]2(C(=O)N(C)c3ccccc32)[C@@H](C)[C@@H]1[Si](C)(C)c1ccc(C)cc1
1.47

Indicate its recorded z-score; the compound in question is CC1CC/C=C\[C@H]2OC34C=CCN(CCN5CCOCC5)C(=O)[C@H]3N(CCO)C(=O)[C@@H]4C2C(=O)O1 (stereo not given in full)
0.322

Indicate its recorded z-score; the compound in question is CN1C2C=C(CCCO)C(C3C(=O)N(C(N)=O)C(=O)C32)C1c1cccs1 (stereo not given)
-0.135

Indicate its recorded z-score; the compound in question is CC(C)(C)OC(=O)CC[C@]1(C(=O)N2CCOCC2)N=C(c2ccc(OCCCO)cc2)O[C@H]1c1ccccc1
-1.56

Indicate its recorded z-score; the compound in question is CCCC[C@@H]1C[C@H]1[C@@H](NC(=O)c1ccccc1)c1ccc(Cl)cc1
0.696

Indicate its recorded z-score; the compound in question is CC[C@@H]1[C@H]2C3C(=O)N(CC)C(=O)C3CC(=O)[C@H]2[C@H](c2ccc(C)cc2)N1S(=O)(=O)c1ccc(C)cc1 (stereo not given in full)
-0.25

Indicate its recorded z-score; the compound in question is CCOC(=O)C1=CC[C@@H](c2ccccc2C(F)(F)F)N(S(=O)(=O)c2ccc(C)cc2)C1
-0.578

Indicate its recorded z-score; the compound in question is C=C1C2CC3C(=C4C(CO[C@@H]4[C@H]4CCCN4S(=O)(=O)c4ccccc4[N+](=O)[O-])C4C(=O)N(C)C(=O)C34)CC2C(=O)N1C (stereo not given in full)
-0.316
